- measured-on: TxA₂ Synthase (Rattus norvegicus, UniProt P49430)
- Construct: Blood was withdrawn from the abdominal aorta of the animals; from tissue; host or cells: whole blood of reduced renal mass (RRM) rats, allowed to clot 1 h at 37°C
- test-protocol: In vitro effect on TxB₂ synthesis in whole blood during clotting (RIA)
- Assay type: cell-based
pIC50: −log10 of the molar value.

# molecule, pIC50
rows = [
    ("CC(=O)Oc1ccccc1C(=O)O [ASA, Acetylsalicylic acid, reference compound]", 4.38),
]

----------
- measured-on: TxA₂ Synthase (Rattus norvegicus)
- Construct: Blood was withdrawn from the abdominal aorta of the animals; from tissue; host or cells: whole blood of reduced renal mass (RRM) rats, allowed to clot 1 h at 37°C
- Sequence (P49430 1-533): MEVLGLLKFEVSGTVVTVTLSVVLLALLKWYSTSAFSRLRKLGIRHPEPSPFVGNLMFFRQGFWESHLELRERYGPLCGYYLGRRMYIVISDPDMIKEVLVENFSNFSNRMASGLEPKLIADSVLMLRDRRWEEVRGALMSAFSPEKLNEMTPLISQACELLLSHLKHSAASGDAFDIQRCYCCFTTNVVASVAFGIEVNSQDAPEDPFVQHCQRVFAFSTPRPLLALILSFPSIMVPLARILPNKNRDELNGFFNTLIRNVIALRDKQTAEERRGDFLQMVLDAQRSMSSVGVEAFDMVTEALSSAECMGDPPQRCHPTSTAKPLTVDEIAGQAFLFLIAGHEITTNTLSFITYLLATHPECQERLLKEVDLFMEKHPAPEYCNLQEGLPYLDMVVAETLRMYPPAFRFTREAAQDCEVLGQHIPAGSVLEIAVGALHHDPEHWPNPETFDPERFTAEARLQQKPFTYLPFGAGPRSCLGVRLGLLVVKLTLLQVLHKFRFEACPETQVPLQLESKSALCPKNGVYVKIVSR
- test-protocol: In vitro effect on TxB₂ synthesis in isolated glomeruli (RIA)
- Type: cell-based
- Experimental: Their ability to inhibit TxA₂ Synthase activity (as reflected by TxB₂ generated in whole blood during clotting or in isolated glomeruli) was tested in vitro and ex vivo in the rat. The effect of the compounds on TxA₂ synthesis was evaluated in serum and in glomeruli isolated from kidney cortex of reduced renal mass rats (RRM). Ablation of >70% of renal mass in the rat results in hypertension, proteinuria and glomerular sclerosis of the remnant kidney. […]
property: IC50 (µM)

# compound, property, value
rows = [
    ("CC(=O)Oc1ccccc1C(=O)O [ASA, Acetylsalicylic acid, reference compound]", "IC50", 140),
]

----------
- test-protocol: Orientative acute oral toxicity
- Parameters: species or system Mice and rats
- experimental-setup: in vivo; single oral administration, assessed on the seventh day after treatment; read-out: orientative acute toxicity (LD₅₀)

# molecule-smiles, LD50 at 168 h
data = [
    ("CCOC(=O)C1=C(C)NC(C)=C(C(=O)OCC)C1c1cccc(-n2ccnc2)c1", "> 800 mg/kg"),
]

----------
- measured-on: TxA₂ Synthase (Rattus norvegicus, UniProt P49430)
- Construct: Blood was withdrawn from the abdominal aorta of the animals; from tissue; host or cells: whole blood of reduced renal mass (RRM) rats, allowed to clot 1 h at 37°C
- Sequence (P49430 1-533): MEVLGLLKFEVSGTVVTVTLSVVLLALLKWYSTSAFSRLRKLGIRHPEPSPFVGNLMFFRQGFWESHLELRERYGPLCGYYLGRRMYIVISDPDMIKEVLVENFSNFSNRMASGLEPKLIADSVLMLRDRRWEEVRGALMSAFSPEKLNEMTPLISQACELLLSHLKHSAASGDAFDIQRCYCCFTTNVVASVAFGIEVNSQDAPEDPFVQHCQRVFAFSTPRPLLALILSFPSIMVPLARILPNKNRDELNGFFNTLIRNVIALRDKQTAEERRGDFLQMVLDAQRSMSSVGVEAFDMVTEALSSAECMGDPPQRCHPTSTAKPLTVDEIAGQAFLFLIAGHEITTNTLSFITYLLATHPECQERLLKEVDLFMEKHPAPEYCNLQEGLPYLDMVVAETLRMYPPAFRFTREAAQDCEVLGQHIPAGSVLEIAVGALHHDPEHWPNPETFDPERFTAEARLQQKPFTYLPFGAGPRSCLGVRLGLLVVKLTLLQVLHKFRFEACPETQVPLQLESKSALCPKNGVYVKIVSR
- test-protocol: In vitro effect on TxB₂ synthesis in isolated glomeruli (RIA)
- Assay type: cell-based
- experimental-setup: RRM rats isolated glomeruli, incubation 1 h at 37°C; read-out: In vitro effect on TxB₂ synthesis in RRM rats glomeruli, IC₅₀
pIC50: −log10 of the molar value.

# molecule-smiles, pIC50
data = [
    ("CCOC(=O)C1=C(C)NC(C)=C(C(=O)OCC)C1c1cccc(-n2ccnc2)c1", 7.44),
]
